Target: human α1G T-type channels (Homo sapiens)
Construct: expressed in transfected cells; host or cells: HEK 293
Sequence (O43497 whole entry): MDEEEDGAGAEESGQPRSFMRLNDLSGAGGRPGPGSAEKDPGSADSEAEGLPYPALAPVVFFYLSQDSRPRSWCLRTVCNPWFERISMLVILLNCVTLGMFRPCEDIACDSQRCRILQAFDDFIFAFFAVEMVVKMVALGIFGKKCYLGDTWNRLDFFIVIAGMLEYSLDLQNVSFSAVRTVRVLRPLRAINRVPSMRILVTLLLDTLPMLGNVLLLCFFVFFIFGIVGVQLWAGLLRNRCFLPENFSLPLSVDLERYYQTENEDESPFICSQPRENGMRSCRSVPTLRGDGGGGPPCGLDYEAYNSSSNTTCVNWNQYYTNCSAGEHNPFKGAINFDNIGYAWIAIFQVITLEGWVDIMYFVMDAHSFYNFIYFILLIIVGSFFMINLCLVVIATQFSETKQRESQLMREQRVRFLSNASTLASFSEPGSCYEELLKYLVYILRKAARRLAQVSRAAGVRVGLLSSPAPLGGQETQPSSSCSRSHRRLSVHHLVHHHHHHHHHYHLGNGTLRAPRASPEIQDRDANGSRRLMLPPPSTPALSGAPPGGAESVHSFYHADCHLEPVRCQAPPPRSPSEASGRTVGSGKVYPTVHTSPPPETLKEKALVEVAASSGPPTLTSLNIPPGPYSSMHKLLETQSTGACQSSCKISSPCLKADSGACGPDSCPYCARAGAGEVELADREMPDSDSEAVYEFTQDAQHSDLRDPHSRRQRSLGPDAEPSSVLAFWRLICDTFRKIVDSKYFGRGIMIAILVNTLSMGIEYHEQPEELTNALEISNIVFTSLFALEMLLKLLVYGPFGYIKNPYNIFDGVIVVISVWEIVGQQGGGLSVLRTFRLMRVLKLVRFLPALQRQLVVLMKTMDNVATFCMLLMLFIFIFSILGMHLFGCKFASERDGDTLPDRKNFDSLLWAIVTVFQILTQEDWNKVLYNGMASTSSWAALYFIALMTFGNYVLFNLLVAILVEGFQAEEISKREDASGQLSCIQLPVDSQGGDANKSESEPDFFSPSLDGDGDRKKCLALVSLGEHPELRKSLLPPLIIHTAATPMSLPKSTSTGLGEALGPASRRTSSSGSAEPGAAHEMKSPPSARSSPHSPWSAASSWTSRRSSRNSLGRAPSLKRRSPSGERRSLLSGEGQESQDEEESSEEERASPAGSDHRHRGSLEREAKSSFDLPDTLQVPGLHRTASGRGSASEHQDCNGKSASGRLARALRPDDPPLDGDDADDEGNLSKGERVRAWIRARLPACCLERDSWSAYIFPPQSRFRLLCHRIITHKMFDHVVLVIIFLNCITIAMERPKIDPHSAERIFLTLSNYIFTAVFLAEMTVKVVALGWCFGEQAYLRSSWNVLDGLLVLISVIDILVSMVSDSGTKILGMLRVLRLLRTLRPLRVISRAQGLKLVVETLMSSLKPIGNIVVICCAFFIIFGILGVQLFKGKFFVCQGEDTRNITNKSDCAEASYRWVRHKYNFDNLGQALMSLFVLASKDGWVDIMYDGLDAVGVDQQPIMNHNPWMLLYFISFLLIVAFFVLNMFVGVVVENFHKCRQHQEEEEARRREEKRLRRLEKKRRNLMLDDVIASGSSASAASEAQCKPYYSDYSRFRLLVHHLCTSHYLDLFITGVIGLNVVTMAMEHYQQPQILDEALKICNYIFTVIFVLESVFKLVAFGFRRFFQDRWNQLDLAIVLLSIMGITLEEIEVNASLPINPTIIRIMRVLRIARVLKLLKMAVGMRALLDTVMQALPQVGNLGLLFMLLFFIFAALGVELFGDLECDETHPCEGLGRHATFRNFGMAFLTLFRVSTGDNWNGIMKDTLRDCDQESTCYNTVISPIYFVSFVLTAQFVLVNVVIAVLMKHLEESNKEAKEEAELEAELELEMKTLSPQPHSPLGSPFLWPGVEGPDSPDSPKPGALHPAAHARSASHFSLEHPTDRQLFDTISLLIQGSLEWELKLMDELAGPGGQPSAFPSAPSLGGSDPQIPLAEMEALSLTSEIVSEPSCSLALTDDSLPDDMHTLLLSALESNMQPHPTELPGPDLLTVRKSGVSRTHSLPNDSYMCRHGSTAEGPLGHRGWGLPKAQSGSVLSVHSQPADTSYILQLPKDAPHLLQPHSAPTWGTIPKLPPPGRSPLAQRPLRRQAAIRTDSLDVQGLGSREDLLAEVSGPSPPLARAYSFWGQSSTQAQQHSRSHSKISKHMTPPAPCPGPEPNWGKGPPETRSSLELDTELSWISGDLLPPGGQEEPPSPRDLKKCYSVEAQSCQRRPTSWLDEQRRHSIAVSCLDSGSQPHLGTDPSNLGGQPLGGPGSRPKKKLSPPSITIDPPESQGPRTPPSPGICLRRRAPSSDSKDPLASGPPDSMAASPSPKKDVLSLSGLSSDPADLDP
Assay: T-type calcium channel block, whole cell patch clamp in HEK cells
Assay type: cell-based
Details: measured at 200 nM drug, mainly non-inactivated protocol
EXPERIMENTAL_READOUT: pKd
The scale used: pKd is minus the common logarithm of the concentration in molar units.

Give pKd for the following compound: O=C(/C=C/c1ccc(F)c(Br)c1)N[C@@H](C(=O)NCCc1c[nH]c2ccc(F)cc12)c1ccccc1
7.15

====

Target: human α1G T-type channels (Homo sapiens)
Construct: expressed in transfected cells; host or cells: HEK 293
Assay: T-type calcium channel block, whole cell patch clamp in HEK cells
Type: cell-based
Settings: measured at 1 μM drug, mainly non-inactivated protocol
pKd: −log10 of the molar value.
Label criterion met for high-side pKd (at or above 6) and criterion not met for low-side pKd (below it).

Please indicate if the recorded pKd for O=C(/C=C/c1ccc(F)cc1)NC1(C(=O)Nc2cccc(C(F)(F)F)c2)CCNCC1 [Compound 33] meets or exceeds 6.
criterion not met

Form field: pKd at least 6? Entry: O=C(/C=C/c1ccc(F)c(Br)c1)NC1(C(=O)NCCc2c[nH]c3ccc(F)cc23)CCNCC1 [Compound 1]
criterion met

// inclusive: pKd at least 6? input: O=C(/C=C/c1ccc(F)c(F)c1)NC1(C(=O)Nc2ccccc2Oc2ccccc2)CCNCC1 [Compound 50]
criterion met

Does the reported pKd for NCC(=O)N1CCC(NC(=O)/C=C/c2ccc(F)c(Br)c2)(C(=O)NCCc2c[nH]c3ccc(F)cc23)CC1 [Compound 24] fall at or above the 6 mark?
criterion met

Please check the record O=C(/C=C/c1ccc(F)c(Br)c1)N[C@H](C(=O)NCCc1c[nH]c2ccc(F)cc12)c1ccccc1 [Compound 17] and state if its pKd is at or above 6.
criterion met

Please tell me: is the compound O=C(/C=C/c1ccc(F)cc1)NC1(C(=O)Nc2cc(C(F)(F)F)cc(C(F)(F)F)c2)CCNCC1 [Compound 32] at or over 6 in terms of pKd?
criterion met

Please tell me: is the compound O=C(/C=C/c1ccc(F)c(Br)c1)NC1(C(=O)NCCc2c[nH]c3ccc(F)cc23)CCN(C(=O)C(F)(F)F)CC1 [Compound 27] at or over 6 in terms of pKd?
criterion met

Exam item: decide whether the reported pKd for O=C(/C=C\c1ccccc1)NC1(C(=O)Nc2cc(C(F)(F)F)cc(C(F)(F)F)c2)CCNCC1 [Compound 40] is at least 6.
criterion met

Test whether the compound CC(C)(O)CN1CCC(NC(=O)/C=C/c2ccc(F)cc2)(C(=O)NCCc2c[nH]c3ccc(F)cc23)CC1 [Compound 69] records pKd of 6 or higher.
criterion not met
